Compiled from multiple publications: log10 of IC50 readings for UniProtKB P29275.
Scale: decimal log of IC50, IC50 in nM.

| COMPOUND | log10 of IC50 |
| --- | --- |
| Cc1c(-c2ncco2)nc(N)n2nc(Cc3ccn(C)n3)nc12 | 0.41 |

Return reported log10 of IC50; argument: "Cc1cc2n(n1)CCN(CCc1nc3c(C)c(-c4ncco4)nc(N)n3n1)C2"
2.83

Return reported log10 of IC50; argument: "CC(C)n1nnc2c1CCN(CCc1nc3cc(-c4cccc(C#N)c4F)nc(N)n3n1)C2"
1.87

Return reported log10 of IC50; argument: COc1cc(F)cc2c1nc(N)n1nc([C@@H]3CC[C@H](C)N(c4cn(CC(C)(C)O)nc4C)C3)nc21 (single isomer, unassigned)
2.95

Return reported log10 of IC50; argument: CCn1cc([C@@]2(O)CCCC(c3nc4c5cc(F)c(OC)cc5nc(N)n4n3)C2)cn1 (single isomer, unassigned)
2.14

Return reported log10 of IC50; argument: "Cc1c(-c2ncco2)nc(N)n2nc(CCN3CCc4c(cnn4C4CCCC4)C3)nc12"
1.65

Return reported log10 of IC50; argument: "Cc1c(-c2ncco2)nc(N)n2nc(Cc3ccc([C@H]4C[C@](C)(O)C4)cc3)nc12"
0.54

Return reported log10 of IC50; argument: "Cc1c(-c2ccc(C#N)c(F)c2)nc(N)c2nc(Cc3ccccc3)nn12"
3.24

Return reported log10 of IC50; argument: COc1cc(F)cc2c1nc(N)n1nc(C3CCC(C)N(c4cnn(CC(C)(C)O)c4)C3)nc21 (single isomer, unassigned)
3.11

Return reported log10 of IC50; argument: COc1cc(F)cc2c1nc(N)n1nc(C3CC(F)CN(c4cn(CC(C)(C)O)nc4C)C3)nc21 (single isomer, unassigned)
2.03

Return reported log10 of IC50; argument: "COc1cccc2c1nc(N)n1nc([C@@H]3C[C@H]3c3cnn(C)c3)nc21"
1.70

Return reported log10 of IC50; argument: "Cc1c(-c2cc(F)cc(F)c2F)nc(N)c2nc(Cc3ccccc3)nn12"
0.43

* * *

pIC50: −log10 of the molar value.
Compiled from multiple publications: pIC50 readings for UniProtKB P29275.

The cases that follow already have their pIC50 on record.
| MOLECULE | pIC50 |
| --- | --- |
| Cc1nc2nc(N[C@@H](C)c3cncc(F)c3)nc(C(=O)N3CC(NC(=O)C4CCOC4)C3)c2s1 (some centres unmarked) | 6.00 to 7.00 |
| CC(=O)Nc1cc2nc(C3CCCC3)nn2c(-c2ccc(C)o2)n1 | 7.00 to 8.00 |
| Cc1nc2cc(NC(=O)C3CC3)nc(-c3ccc(C(F)(F)F)o3)n2n1 | 7.00 to 8.00 |
| Cc1c(-c2cccc(F)c2Cl)nc(N)c2nc(Cc3ccccc3)nn12 | 6.13 |
| O=C(Nc1cc2nc(C3CNC3)nn2c(-c2ccco2)n1)C1CC1 | < 6.00 |
| CNC(=O)Nc1cc2nc(C)nn2c(-c2ccco2)n1 | > 8.00 |
| Cc1nc2nc(N[C@@H](C)c3cccnc3)nc(C(=O)N3CC(NC(=O)C45CC6CC(CC(C6)C4)C5)C3)c2s1 | > 7.00 |

Moving on to another molecule below.
Return reported pIC50; argument: COc1cc2nc(N)n3nc(C4CC(F)CN(c5cnn(CC(C)(C)O)c5)C4)nc3c2cc1F (single isomer, unassigned)
6.30

* * *

Compiled from multiple publications: IC50 readings for UniProt P29275.

| SMILES INPUT | IC50 |
| --- | --- |
| CC(=O)NC[C@H]1CCN(C(=O)c2nc(N[C@@H](C)c3cncc(F)c3)nc3nc(C)sc23)C1 | 100 to 1000 nM |
| Cc1nc2cc(N)nc(-c3ccc(F)c(F)c3)n2n1 | 100 to 1000 nM |

Return reported IC50; argument: "CC(=O)Nc1cc2nc(C3CN(C)C3)nn2c(-c2ccco2)n1"
> 1000 nM

Return reported IC50; argument: "Cc1cccnc1Cc1nc2c(N)nc(-c3ncco3)c(C)n2n1"
29.9 nM

Return reported IC50; argument: "Cc1nc2cc(N)nc(-c3cccc(F)c3)n2n1"
100 to 1000 nM

Return reported IC50; argument: "COc1cc(F)cc2c1nc(N)n1nc([C@@H]3CCCN(c4cnn(C)c4)C3)nc21"
4.8 nM

Return reported IC50; argument: "Cc1ccc(-c2nc(N)c(Cl)n3cc(C)nc23)cc1"
100 to 1000 nM

Return reported IC50; argument: "Cc1cccc(-c2nc(N)c(Cl)n3cc(C)nc23)c1"
100 to 1000 nM

Return reported IC50; argument: "Cc1cccnc1Cc1nc2c(N)nc(-c3cc(F)ccc3F)c(C)n2n1"
47.3 nM

* * *

Compiled from multiple publications: IC50 readings for Adenosine receptor A2b (Homo sapiens, UniProt P29275).

| COMPOUND | IC50 |
| --- | --- |
| Cc1nc2nc(N[C@@H](C)c3cncc(F)c3)nc(C(=O)N3CC(C(=O)N(C)C)C3)c2s1 | < 100 nM |
| Cc1c(-c2cc(F)ccc2F)nc(N)c2nc(Cc3ncccc3F)nn12 | 9.3 nM |

Query for Adenosine receptor A2b (Homo sapiens, UniProt P29275): what IC50 does the record show for "Cc1nc2nc(N[C@@H](C)c3cncc(F)c3)nc(C(=O)N3CC[C@@H](O)C3)c2s1" ?
< 100 nM

Query for Adenosine receptor A2b (Homo sapiens, UniProt P29275): what IC50 does the record show for "Cc1nc2nc(N[C@@H](C)c3cncc(F)c3)nc(C(=O)N3CC[C@H](O)C3)c2s1" ?
< 100 nM

Query for Adenosine receptor A2b (Homo sapiens, UniProt P29275): what IC50 does the record show for "COc1cc2nc(N)n3nc([C@@H]4CCCN(c5cnn(CS(C)(=O)=O)c5C)C4)nc3c2cc1F" ?
78.7 nM

Query for Adenosine receptor A2b (Homo sapiens, UniProt P29275): what IC50 does the record show for "CC(=O)Nc1cn2nc(C)nc2c(-c2ccco2)n1" ?
< 10 nM

Query for Adenosine receptor A2b (Homo sapiens, UniProt P29275): what IC50 does the record show for COc1cccc2c1nc(N)n1nc(C3CC3c3ccc4c(c3)C(=O)NC4)nc21 (centres unmarked) ?
13.2 nM

Query for Adenosine receptor A2b (Homo sapiens, UniProt P29275): what IC50 does the record show for "CC(C)c1ncc2n1CCN(CCc1nc3cc(-c4cccc(F)c4)nc(N)n3n1)C2" ?
95.5 nM

Query for Adenosine receptor A2b (Homo sapiens, UniProt P29275): what IC50 does the record show for "CC(=O)N[C@@H]1CCN(C(=O)c2nc(N[C@@H](C)c3cncc(F)c3)nc3nc(C)sc23)C1" ?
100 to 1000 nM

Query for Adenosine receptor A2b (Homo sapiens, UniProt P29275): what IC50 does the record show for "Cc1ccc(-c2nc3[nH]ncc3c3nc(C(C)C)nn23)o1" ?
10 to 100 nM

Query for Adenosine receptor A2b (Homo sapiens, UniProt P29275): what IC50 does the record show for "CC(=O)Nc1cc2nc(C3CCC3)nn2c(-c2ccc(C)o2)n1" ?
10 to 100 nM

Query for Adenosine receptor A2b (Homo sapiens, UniProt P29275): what IC50 does the record show for "Cc1ccc(-c2nc(NC(=O)C3CC3)cn3cc(CO)nc23)o1" ?
10 to 100 nM

Query for Adenosine receptor A2b (Homo sapiens, UniProt P29275): what IC50 does the record show for "C[C@H](Nc1nc(C(=O)N2CCCC2)c2sc(N)nc2n1)c1cccnc1" ?
100 to 1000 nM

Query for Adenosine receptor A2b (Homo sapiens, UniProt P29275): what IC50 does the record show for "Cc1nc2cc(NC(=O)C3CC3)nc(-c3ccoc3)n2n1" ?
100 to 1000 nM

Query for Adenosine receptor A2b (Homo sapiens, UniProt P29275): what IC50 does the record show for "CC(=O)Nc1ccc(CCNC(=O)c2nc(N[C@@H](C)c3cncc(F)c3)nc3nc(C)sc23)cc1" ?
< 100 nM

Query for Adenosine receptor A2b (Homo sapiens, UniProt P29275): what IC50 does the record show for "Cc1nc2nc(N[C@@H](C)c3cncc(F)c3)nc(C(=O)NCCN3CCOCC3)c2s1" ?
100 to 1000 nM

Query for Adenosine receptor A2b (Homo sapiens, UniProt P29275): what IC50 does the record show for "Cc1c(-c2ncco2)nc(N)n2nc(CCN3CCn4c(cnc4C4CCCC4)C3)nc12" ?
17.7 nM

* * *

Compiled from multiple publications: IC50 readings for Adenosine receptor A2b (Homo sapiens, UniProt P29275).

The cases that follow already have their IC50 on record.
| MOLECULE | TEST TARGET | IC50 |
| --- | --- | --- |
| COc1cc2nc(N)n3nc(C4CCC(C)N(c5cnn(C6CCCC6O)c5)C4)nc3c2cc1F (single isomer, unassigned) | Adenosine receptor A2b (Homo sapiens, UniProt P29275) | 3.4 nM |
| Cc1nc2nc(N[C@@H](C)c3cncc(F)c3)nc(C(=O)N3CC(NC(=O)C4CCOCC4)C3)c2s1 | Adenosine receptor A2b (Homo sapiens, UniProt P29275) | 100 to 1000 nM |
| COc1cc2nc(N)n3nc([C@@H]4CC[C@H](C)N(c5cnn(C6CCC(C)(O)CC6)c5)C4)nc3c2cc1F (single isomer, unassigned) | Adenosine receptor A2b (Homo sapiens, UniProt P29275) | 24.6 nM |
| Cc1nc2cc(N)nc(-c3ccc(S(=O)(=O)N(C)C)cc3)n2n1 | Adenosine receptor A2b (Homo sapiens, UniProt P29275) | > 1000 nM |
| CC(=O)Nc1cn2nc(C)nc2c(-c2ccc(C)o2)n1 | Adenosine receptor A2b (Homo sapiens, UniProt P29275) | < 10 nM |
| Cc1nc2c3cc(C)[nH]c3nc(-c3ccc(C)o3)n2n1 | Adenosine receptor A2b (Homo sapiens, UniProt P29275) | < 10 nM |
| COc1cc(F)cc2c1nc(N)n1nc(C3CC(F)CN(c4cnn(CC5(O)CCC5)c4)C3)nc21 (single isomer, unassigned) | Adenosine receptor A2b (Homo sapiens, UniProt P29275) | 234 nM |
| COc1cc2nc(N)n3nc(C4CCC(C)N(c5cnn(C6CCOCC6)c5)C4)nc3c2cc1F (single isomer, unassigned) | Adenosine receptor A2b (Homo sapiens, UniProt P29275) | 20.4 nM |
| COc1cccc2c1nc(N)n1nc([C@@H]3C[C@H]3c3ccc(C(C)(C)O)cc3)nc21 | Adenosine receptor A2b (Homo sapiens, UniProt P29275) | 26.3 nM |
| Cc1nc2cc(NC(=O)NC(C)C)nc(-c3ccco3)n2n1 | Adenosine receptor A2b (Homo sapiens, UniProt P29275) | 10 to 100 nM |

Query for Adenosine receptor A2b (Homo sapiens, UniProt P29275): what IC50 does the record show for Cc1ccc(-c2nc(NC(=O)C3CC3)cc3nc(C4CCOC4)nn23)o1 (stereo not drawn) ?
10 to 100 nM
